- Test system: CAKI-1
- Assay Info: NCI tumour cell line growth inhibition, 48 h
Active and inactive are the calls of the source. No stated cut-off is given here; in the data, active = GI50 up to about 1.1 µM and inactive = higher.
Outcome codes: active, inactive

{"Molecule": "CC(=O)c1ccc(-c2oc(-c3ccccc3)cc2-c2ccc3c(c2)OCO3)s1", "Class Name": "inactive"}
{"Molecule": "O=C1C2=C(c3ccccc31)C(c1ccc(Cl)cc1)N1C(=O)CCSC1=N2 (stereo not given)", "Class Name": "inactive"}
{"Molecule": "COc1cccc(/C=N/C23CC4CC(CC(C4)C2)C3)c1", "Class Name": "inactive"}
{"Molecule": "CCS/C(=N\\c1ccccc1)SC", "Class Name": "inactive"}
{"Molecule": "COc1c(-c2cccs2)oc2c(CC(=O)O)cccc2c1=O", "Class Name": "inactive"}
{"Molecule": "O=c1oc(-c2ccccc2)c(-c2ccccc2)n1-c1ccc(Br)cc1", "Class Name": "inactive"}
{"Molecule": "O=C(O)c1nn[nH]c1S", "Class Name": "inactive"}
{"Molecule": "O=C1CC2(CCN(Cc3ccccc3)CC2)C(=O)N1N1CCCCC1", "Class Name": "inactive"}
{"Molecule": "CC1OC(c2ccc3c(c2O)C(=O)C2=C(C3=O)C3(O)C(=O)CC(C)(O)CC3(O)C=C2)CC(O)C1O (stereo not given)", "Class Name": "inactive"}
{"Molecule": "CN(C)CCNCCCNc1c2ccccc2nc2cccc([N+](=O)[O-])c12", "Class Name": "active"}
{"Molecule": "CC(C)(C)OC(=O)Nc1cc(-c2ccccc2)co1", "Class Name": "inactive"}
{"Molecule": "CCOC(=O)C1=C(C)N(c2ccc(Cl)cc2)C2(O)C=CC(Nc3ccc(Cl)cc3)=C3C(=O)N(c4ccccc4)C(=O)C312 (stereo not given)", "Class Name": "inactive"}
{"Molecule": "CCCNC(=O)CCC(C)[C@H]1CCC2C3C(C[C@H](OC(C)=O)[C@@]21C)[C@@]1(C)CCC2(C[C@H]1C[C@H]3OC(C)=O)OOC1(CCCCC1)OO2 (stereo not given in full)", "Class Name": "active"}
{"Molecule": "CCN(CC)CC(=O)/C=C/c1ccc(C)cc1", "Class Name": "inactive"}
{"Molecule": "COC1=CC(C2c3cc4c(cc3[C@@H](Nc3ccc([N+](=O)[O-])cc3)C3COC(=O)[C@H]23)OCO4)=CC(=O)C1=O (stereo not given in full)", "Class Name": "inactive"}
{"Molecule": "COc1ccc(-c2c3c(nc4[nH]c(=S)[nH]c(=S)c24)CCCC3)cc1OC", "Class Name": "inactive"}
{"Molecule": "CCOC(=O)CCC(NC(=O)N1CCN(c2c(C)nc(C)nc2O)CC1)C(=O)OCC (stereo not given)", "Class Name": "inactive"}
{"Molecule": "CC(=O)/N=C1\\NC(=O)/C(=C/c2ccccc2Cl)N1C", "Class Name": "inactive"}
{"Molecule": "COc1ccc(OC)c([N+](=O)[O-])c1-c1nc2sccn2c1/C=N/N=C(N)N", "Class Name": "inactive"}
{"Molecule": "CC(=O)O[C@H]1[C@@H](N2CCCCC2)C[C@H]2[C@@H]3CC=C4C[C@@H](N5CCCC5)CC[C@]4(C)[C@H]3CC[C@@]21C", "Class Name": "inactive"}

---

- System: A498
- Assay Info: NCI tumour cell line growth inhibition, 48 h
The source made the active and inactive calls. Cut-off read from the data, not from the text of the source: active = GI50 up to about 1.1 µM and inactive = higher.
Labels: YES for active, NO for inactive

{"Compound": "CC1[C@@]2(O[C@@H]3C=C4C5CCC6Cc7nc8c(nc7C[C@@]6(C)C5C[C@H](O)[C@@]4(C)[C@]13O)CC1CCc3c(cc4c5c3C(O)C[C@H]5[C@@H](C)C3(O4)OC(C)(C)CC3O)[C@]1(C)C8)O[C@@](C)(CO)C[C@@H]2O (stereo not given in full)", "Class Name": "YES"}
{"Compound": "COC(=O)C1C(OS(=O)(=O)O)CCC2CN3CCc4c([nH]c5ccccc45)C3CC21 (stereo not given)", "Class Name": "NO"}
{"Compound": "CC1CC2C3CCC4=CC(=O)C=CC4(C)C3(F)C(O)CC2(C)C1(O)C(=O)COP(=O)(O)O (stereo not given)", "Class Name": "NO"}
{"Compound": "CC1CC(=O)Nc2nc3ccccc3n21 (stereo not given)", "Class Name": "NO"}
{"Compound": "Nc1sccc1S(=O)(=O)c1ccsc1N", "Class Name": "NO"}
